Entries with their measured pIC50, system Squalene epoxidase (Sus scrofa):
Give bare numbers, as −log10 of the molar value.

[
  {
    "smilesRepresentation": "CC(C)=CCC/C(C)=C/CC/C(C)=C/CC/C=C(\\C)CC/C=C(\\C)CCCNC1CC1",
    "pIC50": 5.70
  }
]

Problem: Name the recorded pIC50 for "CC(C)=CCC/C(C)=C/CC/C(C)=C/CC/C=C(\C)CC/C=C(\C)CCCO" .
Result: 5.40

---

molecular target: Squalene monooxygenase (Rattus norvegicus, UniProt P52020); assay: Inhibition of C-terminal hexahistidine-tagged rat recombinant squalene epoxidase without N-terminal putative membrane domain expressed in Escherichia coli
Sequence (P52020 whole entry, the tested form may be a part): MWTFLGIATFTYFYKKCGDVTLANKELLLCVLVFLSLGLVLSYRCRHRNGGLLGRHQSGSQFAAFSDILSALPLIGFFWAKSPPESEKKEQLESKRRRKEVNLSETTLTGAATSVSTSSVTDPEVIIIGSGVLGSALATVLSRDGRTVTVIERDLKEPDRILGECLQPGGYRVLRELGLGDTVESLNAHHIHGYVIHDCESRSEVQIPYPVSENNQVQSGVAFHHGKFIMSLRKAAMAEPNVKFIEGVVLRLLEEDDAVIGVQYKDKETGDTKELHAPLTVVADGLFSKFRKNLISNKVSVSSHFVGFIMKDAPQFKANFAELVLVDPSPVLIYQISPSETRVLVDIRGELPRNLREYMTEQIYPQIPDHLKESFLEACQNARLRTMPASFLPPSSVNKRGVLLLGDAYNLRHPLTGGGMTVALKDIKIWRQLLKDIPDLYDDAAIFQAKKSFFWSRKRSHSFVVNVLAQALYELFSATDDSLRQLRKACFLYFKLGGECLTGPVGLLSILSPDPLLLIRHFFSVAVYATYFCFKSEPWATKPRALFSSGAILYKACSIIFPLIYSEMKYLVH
I'd be grateful if you could share measured IC50 for these entries.
Answer with the figure and its unit, nothing else.

Previously resolved entries follow.
[
  {
    "molecule": "CCCCCCCCCCCCCCCCOC(=O)c1cc(O)c(O)c(O)c1-c1c(C(=O)OCCCCCCCCCCCCCCCC)cc(O)c(O)c1O",
    "studySystem": "Squalene monooxygenase (Rattus norvegicus, UniProt P52020)",
    "IC50": "2.5 µM"
  },
  {
    "molecule": "O=c1oc2c(O)c(O)cc3c(=O)oc4c(O)c(O)cc1c4c23 [ELLAGIC ACID]",
    "studySystem": "Squalene monooxygenase (Rattus norvegicus, UniProt P52020)",
    "IC50": "2 µM"
  },
  {
    "molecule": "O=C(O[C@@H]1O[C@@H]2COC(=O)c3cc(O)c(O)c(O)c3-c3c(cc(O)c(O)c3O)C(=O)O[C@H]2[C@H](OC(=O)c2cc(O)c(O)c(O)c2)[C@H]1OC(=O)c1cc(O)c(O)c(O)c1)c1cc(O)c(O)c(O)c1 [EUGENIIN]",
    "studySystem": "Squalene monooxygenase (Rattus norvegicus, UniProt P52020)",
    "IC50": "1.6 µM"
  },
  {
    "molecule": "O=C(OC[C@H]1O[C@@H](OC(=O)c2cc(O)c(O)c(O)c2)[C@H](OC(=O)c2cc(O)c(O)c(O)c2)[C@@H](OC(=O)c2cc(O)c(O)c(O)c2)[C@@H]1OC(=O)c1cc(O)c(O)c(O)c1Oc1cc2c(c(O)c1O)-c1c(cc(O)c(O)c1O)C(=O)O[C@H]1[C@H](OC(=O)c3cc(O)c(O)c(O)c3)[C@@H](OC(=O)c3cc(O)c(O)c(O)c3)[C@H](OC(=O)c3cc(O)c(O)c(O)c3)O[C@@H]1COC2=O)c1cc(O)c(O)c(O)c1 [PHYLLYRAEOIDIN]",
    "studySystem": "Squalene monooxygenase (Rattus norvegicus, UniProt P52020)",
    "IC50": "100 µM"
  },
  {
    "molecule": "CCCCOC(=O)c1cc(O)c(O)c(O)c1-c1c(C(=O)OCCCC)cc(O)c(O)c1O",
    "studySystem": "Squalene monooxygenase (Rattus norvegicus, UniProt P52020)",
    "IC50": "7.9 µM"
  }
]

Consider now this further molecule.
Problem: I would be grateful if you could share the reported IC50 for "CCCCCCCCCCCCCCCCCCOC(=O)c1cc(O)c(O)c(O)c1-c1c(C(=O)OCCCCCCCCCCCCCCCCCC)cc(O)c(O)c1O" .
Result: 47 µM

---

biological target: Squalene monooxygenase (Rattus norvegicus); assay: Inhibition of C-terminal hexahistidine-tagged rat recombinant squalene epoxidase without N-terminal putative membrane domain expressed in Escherichia coli
assayReadout: pIC50
Numbers only, as −log10 of the molar value.

Use the examples below as a reference point.
[
  {
    "compound": "O=C1O[C@H]2[C@@H]3OC(=O)c4cc(O)c(O)c(O)c4-c4c(cc(O)c(O)c4O)C(=O)OC[C@H]2O[C@@H](OC(=O)c2cc(O)c(O)c(O)c2)[C@@H]3OC(=O)c2cc(O)c(O)c3c2[C@@H]2C1=CC(=O)[C@](O)(O3)C2(O)O",
    "pIC50": 5.39
  },
  {
    "compound": "O=C1OC[C@H]2OC(=O)c3cc(O)c(O)c(O)c3-c3c(O)c(O)c(O)c4c3C(=O)O[C@H]([C@H]3OC(=O)c5c-4c(O)c(O)c(O)c5[C@H]3O)[C@@H]2OC(=O)c2cc(O)c(O)c(O)c2-c2c1cc(O)c(O)c2O",
    "pIC50": 4.52
  },
  {
    "compound": "O=C(O[C@@H]1O[C@@H]2COC(=O)c3cc(O)c(O)c(O)c3-c3c(O)c(O)c(O)c(Oc4cc(C(=O)O[C@@H]5O[C@@H]6COC(=O)c7cc(O)c(O)c(O)c7-c7c(cc(O)c(O)c7O)C(=O)O[C@H]6[C@@H]6OC(=O)c7cc(O)c(O)c(O)c7-c7cc(O)c(O)c(O)c7C(=O)O[C@@H]56)cc(O)c4O)c3C(=O)O[C@H]2[C@@H]2OC(=O)c3cc(O)c(O)c(O)c3-c3c(cc(O)c(O)c3O)C(=O)O[C@@H]12)c1cc(O)c(O)c(O)c1",
    "pIC50": 4.92
  }
]

Problem: What value of pIC50 has been reported for the following compound? O=C1O[C@H]2[C@H](O)[C@@H](CO)OC(O)[C@@H]2OC(=O)c2cc(O)c(O)c(O)c2-c2c1cc(O)c(O)c2O (some centres undefined)
Result: 4.49

---

Task for the reader: assign each of the following compounds its reported pIC50.
biological target: Squalene monooxygenase (Rattus norvegicus); experiment: Inhibition of C-terminal hexahistidine-tagged rat recombinant squalene epoxidase without N-terminal putative membrane domain expressed in Escherichia coli
Give bare numbers, as −log10 of the molar value.

Solved entries (count: 4):
[
  {
    "compound": "CCCCCCCCCCCCCCOC(=O)c1cc(O)c(O)c(O)c1-c1c(C(=O)OCCCCCCCCCCCCCC)cc(O)c(O)c1O",
    "pIC50": 5.82
  },
  {
    "compound": "O=C(O)c1cc(O)c(O)c(O)c1 [GALLIC ACID]",
    "pIC50": 4.14
  },
  {
    "compound": "CCCCCCCCCCOC(=O)c1cc(O)c(O)c(O)c1-c1c(C(=O)OCCCCCCCCCC)cc(O)c(O)c1O",
    "pIC50": 5.96
  },
  {
    "compound": "O=C(O)C[C@H]1C(=O)O[C@H]2[C@H](OC(=O)c3cc(O)c(O)c(O)c3)[C@@H](OC(=O)c3cc(O)c(O)c4c3[C@H]1[C@H](O)C(=O)O4)[C@H](OC(=O)c1cc(O)c(O)c(O)c1)O[C@@H]2COC(=O)c1cc(O)c(O)c(O)c1 [CHEBULINIC ACID]",
    "pIC50": 4.92
  }
]

Kindly give each listed record's pIC50.
1. O=C1O[C@H]2[C@@H]3OC(=O)c4cc(Oc5c(C(=O)O)cc(O)c(O)c5O)c(O)c(O)c4-c4c(cc(O)c(O)c4O)C(=O)OC[C@H]2O[C@@H](OC(=O)c2cc(O)c(O)c(O)c2)[C@@H]3OC(=O)c2cc(O)c(O)c3c2[C@@H]2C1=CC(=O)[C@](O)(O3)C2(O)O [MALLOTUSINIC ACID]
2. O=C1O[C@H]2[C@H](O)[C@@H](OC(=O)c3cc(O)c(O)c4c3[C@@H]3C1=CC(=O)C(O)(O)C3(O)O4)[C@H](OC(=O)c1cc(O)c(O)c(O)c1)O[C@@H]2CO (stereo partly specified) [FUROSIN]

Result:
1: 5.10; 2: 5.00

---

biological target: Squalene monooxygenase (Rattus norvegicus, UniProt P52020); test: Inhibition of C-terminal hexahistidine-tagged rat recombinant squalene epoxidase without N-terminal putative membrane domain expressed in Escherichia coli
Rule: IC50 below 3 µM gives Satisfied. Equal to or above 3 µM gives Not satisfied.

Completed entries (count: 9):
[
  {
    "molecule": "O=C1OC[C@H]2OC(O)[C@@H]3OC(=O)c4cc(O)c(O)c(O)c4-c4c(cc(O)c(O)c4O)C(=O)O[C@H]3[C@@H]2OC(=O)c2cc(O)c(O)c(O)c2-c2c1cc(O)c(O)c2O (stereo not given in full)",
    "qualitativeLabel": "Satisfied"
  },
  {
    "molecule": "O=C1O[C@@H]2[C@@H](OC(=O)c3cc(O)c(O)c(O)c3-c3c1cc(O)c(O)c3O)[C@H](O)O[C@@H]1COC(=O)c3cc(O)c(O)c(O)c3-c3c(O)c(O)c4oc(=O)c5c(c(O)c(O)c6oc(=O)c3c4c65)-c3c(cc(O)c(O)c3O)C(=O)O[C@@H]21",
    "qualitativeLabel": "Not satisfied"
  },
  {
    "molecule": "O=C(O)C[C@@H]1C(=O)O[C@H]2[C@@H]3OC(=O)c4cc(O)c(O)c(O)c4-c4c(cc(O)c(O)c4O)C(=O)OC[C@H]2O[C@@H](OC(=O)c2cc(O)c(O)c(O)c2)[C@@H]3OC(=O)c2cc(O)c(O)c3c2[C@H]1[C@H](O)C(=O)O3",
    "qualitativeLabel": "Not satisfied"
  },
  {
    "molecule": "CCCCCCCCCCCCOC(=O)c1cc(O)c(O)c(O)c1-c1c(C(=O)OCCCCCCCCCCCC)cc(O)c(O)c1O",
    "qualitativeLabel": "Satisfied"
  },
  {
    "molecule": "O=C(O[C@@H]1COC(=O)c2cc(O)c(O)c(O)c2-c2c(cc(O)c(O)c2O)C(=O)O[C@H]1[C@@H]1OC(=O)c2cc(O)c(O)c(O)c2-c2c(O)c(O)c(O)c3c2C(=O)O[C@H]1[C@@H]3O)c1cc(O)c(O)c(O)c1",
    "qualitativeLabel": "Not satisfied"
  },
  {
    "molecule": "O=C(OC[C@H]1O[C@@H](OC(=O)c2cc(O)c(O)c(O)c2)[C@H](OC(=O)c2cc(O)c(O)c(O)c2)[C@@H](OC(=O)c2cc(O)c(O)c(O)c2)[C@@H]1OC(=O)c1cc(O)c(O)c(O)c1)c1cc(O)c(O)c(O)c1",
    "qualitativeLabel": "Satisfied"
  },
  {
    "molecule": "CCOC(=O)c1cc(O)c(O)c(O)c1-c1c(C(=O)OCC)cc(O)c(O)c1O",
    "qualitativeLabel": "Not satisfied"
  },
  {
    "molecule": "CCCCCCCCOC(=O)c1cc(O)c(O)c(O)c1 [OCTYL_GALLATE]",
    "qualitativeLabel": "Satisfied"
  },
  {
    "molecule": "O=C1OC[C@H]2O[C@@H](O)[C@H](O)[C@@H](O)[C@@H]2OC(=O)c2cc(O)c(O)c(O)c2-c2c(O)c(O)c3oc(=O)c4c(c(O)c(O)c5oc(=O)c2c3c54)-c2c1cc(O)c(O)c2O",
    "qualitativeLabel": "Not satisfied"
  }
]

# next molecule below
Problem: Lab note: IC50 threshold 3 µM. Does this molecule come in strictly under it? "O=C(O[C@@H]1O[C@@H]2COC(=O)c3cc(O)c(O)c(O)c3-c3c(cc(Oc4c(C(=O)O)cc(O)c(O)c4O)c(O)c3O)C(=O)O[C@H]([C@H]1O)[C@@H]2O)c1cc(O)c(O)c(O)c1"
Result: Not satisfied

Values from ChEMBL document CHEMBL1155741
